// data source = ChEMBL document CHEMBL3400131

# TEST SYSTEM: Rho-associated protein kinase 2 (Homo sapiens)
# Sequence (O75116 whole entry): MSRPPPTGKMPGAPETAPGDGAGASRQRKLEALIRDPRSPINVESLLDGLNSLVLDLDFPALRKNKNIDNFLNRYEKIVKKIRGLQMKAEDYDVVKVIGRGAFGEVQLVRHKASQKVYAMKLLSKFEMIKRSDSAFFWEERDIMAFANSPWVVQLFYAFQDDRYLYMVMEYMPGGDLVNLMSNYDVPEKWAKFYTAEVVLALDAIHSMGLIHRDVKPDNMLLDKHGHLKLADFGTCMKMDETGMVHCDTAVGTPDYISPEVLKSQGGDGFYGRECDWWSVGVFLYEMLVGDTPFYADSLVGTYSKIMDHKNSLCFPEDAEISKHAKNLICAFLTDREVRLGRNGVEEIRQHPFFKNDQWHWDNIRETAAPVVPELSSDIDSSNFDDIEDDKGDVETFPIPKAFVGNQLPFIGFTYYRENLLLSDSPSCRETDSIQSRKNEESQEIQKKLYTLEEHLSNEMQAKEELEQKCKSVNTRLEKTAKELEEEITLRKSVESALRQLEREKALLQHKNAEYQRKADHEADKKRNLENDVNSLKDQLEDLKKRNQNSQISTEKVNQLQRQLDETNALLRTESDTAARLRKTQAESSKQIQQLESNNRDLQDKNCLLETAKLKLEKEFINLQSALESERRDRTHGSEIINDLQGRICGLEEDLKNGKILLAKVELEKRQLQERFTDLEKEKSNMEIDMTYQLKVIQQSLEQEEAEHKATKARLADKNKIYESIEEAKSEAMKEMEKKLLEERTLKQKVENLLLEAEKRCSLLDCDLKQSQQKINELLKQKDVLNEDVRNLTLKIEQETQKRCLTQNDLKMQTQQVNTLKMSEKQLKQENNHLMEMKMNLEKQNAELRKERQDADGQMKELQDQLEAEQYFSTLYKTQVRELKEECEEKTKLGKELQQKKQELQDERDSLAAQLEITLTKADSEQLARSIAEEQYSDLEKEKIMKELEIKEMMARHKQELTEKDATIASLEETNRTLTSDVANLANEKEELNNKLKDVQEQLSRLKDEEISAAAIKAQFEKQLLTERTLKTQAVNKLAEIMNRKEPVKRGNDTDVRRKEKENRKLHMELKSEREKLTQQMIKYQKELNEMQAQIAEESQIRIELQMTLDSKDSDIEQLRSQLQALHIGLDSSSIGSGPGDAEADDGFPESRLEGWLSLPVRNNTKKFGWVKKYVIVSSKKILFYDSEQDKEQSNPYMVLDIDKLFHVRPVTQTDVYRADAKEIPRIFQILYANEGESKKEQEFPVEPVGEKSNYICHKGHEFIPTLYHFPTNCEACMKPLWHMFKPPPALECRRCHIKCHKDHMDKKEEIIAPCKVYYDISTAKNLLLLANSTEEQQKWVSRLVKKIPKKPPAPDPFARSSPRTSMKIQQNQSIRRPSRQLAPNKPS
REPORTED ENDPOINT: pIC50
The read-out pIC50 is expressed as -log10 of concentration in moles per litre.

Study these solved cases before continuing.
CHEMICAL STRUCTURE | TEST SYSTEM | ENDPOINT VALUE
COc1cccc(CNC(=O)Nc2ccc(-c3ncnc4[nH]ccc34)cc2)c1 | Rho-associated protein kinase 2 (Homo sapiens) | 6.73
CN(C)CCOc1cc(-c2cn[nH]c2)ccc1NC(=O)N(CCN(C)C)Cc1ccccc1 | Rho-associated protein kinase 2 (Homo sapiens) | 6.77

Field: next compound
Simply: CNC(=O)N(CCCN(C)C)c1ccc(-c2cn[nH]c2)cc1 , Rho-associated protein kinase 2 (Homo sapiens), pIC50 = 5.48

---

# ASSAY COMMENT: Inhibition of recombinant human full length PKA using kemptide substrate after 80 mins by luminescence mode
Catalogue of pIC50 readings, one per entry.
Just so you know, pIC50 here is -log10 of the concentration in molar units; reply with that number alone.

Look over these answered cases.
COMPOUND | pIC50
COc1cccc(CNC(=O)Nc2ccc(-c3cn[nH]c3)cc2N(C)CCN(C)C)c1 | 5.45
CC(C)N(Cc1ccccc1)C(=O)Nc1ccc(-c2cn[nH]c2)cc1 | 5.47
O=C(Nc1ccc(-c2cn[nH]c2)cc1)N(CCO)Cc1ccccc1 | 6.21
COc1cccc(CN(C(=O)Nc2ccc(-c3cn[nH]c3)cc2)C(C)C)c1 | 4.73

Now, please, on to the next compound.
// sample CN(C)CCC(NC(=O)Nc1ccc(-c2cn[nH]c2)cc1)c1ccccc1 (stereo not given) , its pIC50 was 6.62

---

# ASSAY COMMENT: Inhibition of recombinant human full length PKA using kemptide substrate after 80 mins by luminescence mode
Define the label as class 1 when IC50 is strictly less than 900 nM and as class 0 in all remaining cases.

CHEMICAL STRUCTURE | CLASS NAME
O=C(NCCc1ccccc1)Nc1ccc(-c2cn[nH]c2)cc1 | class 0

IN: Determine whether this compound shows IC50 lower than 900 nM (ties excluded): Nc1cccc(CNC(=O)Nc2ccc(-c3cn[nH]c3)cc2)c1
OUT: class 1

IN: Dear colleague, could you confirm whether IC50 of O=C(NCc1ccccc1)Nc1ccc(-c2cn[nH]c2)cc1 falls below 900 nM? Thanks.
OUT: class 1

IN: Please let me know if O=C(Nc1ccc(-c2cn[nH]c2)cc1)N1CCc2ccccc2C1 shows IC50 below 900 nM.
OUT: class 0

IN: Hello, is IC50 of the following compound strictly smaller than 900 nM? COc1cccc(CN(C)C(=O)Nc2ccc(-c3cn[nH]c3)cc2N(C)CCN(C)C)c1
OUT: class 0

---

# ASSAY COMMENT: Inhibition of recombinant human full length PKA using kemptide substrate after 80 mins by luminescence mode
REPORTED ENDPOINT: IC50 (µM)
State just the number; it will be interpreted in µM.

COMPOUND | ENDPOINT VALUE
COc1cccc(CNC(=O)Nc2ccc(-c3cn[nH]c3)cc2OC)c1 | 0.163
COc1cccc(CN(C(=O)Nc2ccc(-c3cn[nH]c3)cc2)C2CC2)c1 | 1.71
O=C(Nc1ccc(-c2cn[nH]c2)cc1)NC(CCO)c1ccccc1 (stereo not drawn) | 0.438

The reported IC50 of the compound COc1cccc(CNC(=O)Nc2ccc(-c3ccnc(N)c3)cc2)c1 was 5.14

What the record says about COc1ccccc1CNC(=O)Nc1ccc(-c2cn[nH]c2)cc1 : IC50 is 0.654

---

# ASSAY COMMENT: Inhibition of recombinant human full length PKA using kemptide substrate after 80 mins by luminescence mode
pIC50: −log10 of the molar value.
Response key: yes (1) means pIC50 >= 6; no (0) means pIC50 < 6.

IN: Quick check: does COc1cccc(CN(C)C(=O)Nc2ccc(-c3cn[nH]c3)cc2OCCN(C)C)c1 have pIC50 greater than or equal to 6?
OUT: no (0)

IN: Is pIC50 for O=C(NCc1cccc(F)c1)Nc1ccc(-c2cn[nH]c2)cc1 at or above 6?
OUT: yes (1)

IN: Given O=C(Nc1ccc(-c2cn[nH]c2)cc1OCCO)N(CCO)Cc1ccccc1 , state whether its pIC50 is at least 6.
OUT: yes (1)

IN: Kindly determine if pIC50 recorded for O=C(Nc1ccc(-c2cn[nH]c2)cc1)NC(CCO)c1cccc(F)c1 (configuration not stated) is above or exactly 6.
OUT: yes (1)

IN: Check if pIC50 >= 6 (inclusive). Item: CCN(Cc1cccc(OC)c1)C(=O)Nc1ccc(-c2cn[nH]c2)cc1N(C)CCN(C)C
OUT: no (0)

IN: Hi, just wondering whether COc1cccc(CNC(=O)Nc2ccc(-c3cn[nH]c3)cc2OCCN2CCCC2)c1 shows pIC50 of 6 or higher.
OUT: no (0)

IN: Quick check, pIC50 >= 6? COc1ccc(CNC(=O)Nc2ccc(-c3cn[nH]c3)cc2)c(OC)c1
OUT: no (0)

---

# ASSAY COMMENT: Inhibition of recombinant human full length PKA using kemptide substrate after 80 mins by luminescence mode
REPORTED ENDPOINT: pIC50
Convention used: pIC50 is expressed as -log10 of the molar concentration.

CHEMICAL STRUCTURE | pIC50
CN(C)CCN(C)c1cc(-c2cn[nH]c2)ccc1NC(=O)NCc1ccccc1 | 6.05
COc1cccc(CN(CCO)C(=O)Nc2ccc(-c3cn[nH]c3)cc2)c1 | 5.52
COc1cccc(CNC(=O)Nc2ccc(-c3ccnc(N)n3)cc2)c1 | 5.99
COc1cccc(CNC(=O)Nc2ccc(-c3cn[nH]c3)cc2F)c1 | 5.74
CCN(Cc1cccc(OC)c1)C(=O)Nc1ccc(-c2cn[nH]c2)cc1 | 5.33

Kindly note the recorded pIC50 for COc1cccc(CN(CCCN2CCCC2)C(=O)Nc2ccc(-c3cn[nH]c3)cc2)c1 , which is 6.64

---

# ASSAY COMMENT: Inhibition of recombinant human full length PKA using kemptide substrate after 80 mins by luminescence mode
REPORTED ENDPOINT: pIC50
To interpret pIC50, take it as minus log10 of a concentration measured in moles per litre.

COMPOUND | ENDPOINT VALUE
CCN(Cc1cccc(OC)c1)C(=O)Nc1ccc(-c2cn[nH]c2)cc1O[C@H]1CCN(C)C1 | 5.17
Cc1cccc(CNC(=O)Nc2ccc(-c3cn[nH]c3)cc2)c1 | 5.58
COCCN(Cc1cccc(OC)c1)C(=O)Nc1ccc(-c2cn[nH]c2)cc1 | 4.98
COc1cccc(CN(CCCN2CCOCC2)C(=O)Nc2ccc(-c3cn[nH]c3)cc2)c1 | 6.14
O=C(NCc1cccc(Cl)c1)Nc1ccc(-c2cn[nH]c2)cc1 | 6.34
COc1cccc(CNC(=O)Nc2ccc(-c3cn[nH]c3)cc2Cl)c1 | 6.50
CN(C)CCSc1cc(-c2cn[nH]c2)ccc1NC(=O)NCc1ccccc1 | 6.33
O=C(Nc1ccc(-c2cn[nH]c2)cc1F)N(CCO)Cc1ccccc1 | 5.99
COc1cccc(CNC(=O)Nc2ccc(-c3cn[nH]c3)cc2)c1 | 6.05
CNC(=O)N(CCN(C)C)c1ccc(-c2cn[nH]c2)cc1 | 5.38

In plain terms, COc1cccc(CN(CCN2CCCC2)C(=O)Nc2ccc(-c3cn[nH]c3)cc2)c1 has a documented pIC50 of 6.27

---

# ASSAY COMMENT: Inhibition of recombinant human full length PKA using kemptide substrate after 80 mins by luminescence mode
IC50 listing for selected compounds.
API: value field is a number in µM; no unit string.

COMPOUND | IC50 / µM
COc1ccc(CNC(=O)Nc2ccc(-c3cn[nH]c3)cc2)cc1F | 0.518
COc1cccc(CNC(=O)Nc2ccc(-c3ncnc4[nH]ccc34)cc2)c1 | 0.744
COc1cccc(CN(CCN2CCOCC2)C(=O)Nc2ccc(-c3cn[nH]c3)cc2)c1 | 3.82
COc1cccc(CN(C)C(=O)Nc2ccc(-c3cn[nH]c3)cc2)c1 | 1.81

Recorded IC50 (compound CNC(=O)N(CCCN(C)C)c1ccc(-c2cn[nH]c2)cc1 ): 12

IC50 measured on COc1cccc(CN(CCN2CCCCC2)C(=O)Nc2ccc(-c3cn[nH]c3)cc2)c1 = 0.338

Reported IC50 of COc1cccc(CN(CCCN2CCCCC2)C(=O)Nc2ccc(-c3cn[nH]c3)cc2)c1 : 0.822

In plain terms, CCN(Cc1cccc(OC)c1)C(=O)Nc1ccc(-c2cn[nH]c2)cc1OCCN1CCCC1 has a documented IC50 of 18.1

The compound COc1cccc(CNC(=O)Nc2ccc(-c3c[nH]nc3C)cc2)c1 showed IC50 equal to 0.816

Please fill in: IC50 reported for O=C(Nc1ccc(-c2cn[nH]c2)cc1)NC(CO)c1ccccc1 (configuration not stated) = 0.389

Just so you know, measured IC50 for COc1cccc(C(CCO)NC(=O)Nc2ccc(-c3cn[nH]c3)cc2)c1 (configuration not stated) came out at 4.87
